Biological target: T1, IL-1 receptor (IL-1R) expressed on human monocytes (human), P14778
T1 chain: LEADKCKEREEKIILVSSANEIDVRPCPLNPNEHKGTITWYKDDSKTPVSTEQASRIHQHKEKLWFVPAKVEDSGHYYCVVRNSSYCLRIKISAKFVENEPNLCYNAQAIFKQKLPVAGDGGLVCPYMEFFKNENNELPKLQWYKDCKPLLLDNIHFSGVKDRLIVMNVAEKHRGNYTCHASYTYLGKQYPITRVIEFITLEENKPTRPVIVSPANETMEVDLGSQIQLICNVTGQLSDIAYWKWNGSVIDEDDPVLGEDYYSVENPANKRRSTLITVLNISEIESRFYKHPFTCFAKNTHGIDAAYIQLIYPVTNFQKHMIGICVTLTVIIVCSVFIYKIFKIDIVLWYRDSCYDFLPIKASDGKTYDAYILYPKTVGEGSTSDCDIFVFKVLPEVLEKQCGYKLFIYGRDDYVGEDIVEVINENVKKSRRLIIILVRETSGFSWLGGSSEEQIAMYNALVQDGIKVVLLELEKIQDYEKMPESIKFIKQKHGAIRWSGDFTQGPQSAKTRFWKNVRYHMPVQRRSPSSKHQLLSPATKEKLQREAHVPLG
Experiment: radioligand competition, 40 pM 125I-IL-1α on confluent human monocytes
Non-standard residues stand in square brackets, D forms with d. No end group written: not given here.
Quantity measured: IC50 (nM)

1) Ac-[dL][dP][dL][dA][dY][dP][dQ][dW][dY]G[dP][dT][dW][dE][dF]	6.9
